system: UniProtKB P50172
Sequence (P50172 whole entry): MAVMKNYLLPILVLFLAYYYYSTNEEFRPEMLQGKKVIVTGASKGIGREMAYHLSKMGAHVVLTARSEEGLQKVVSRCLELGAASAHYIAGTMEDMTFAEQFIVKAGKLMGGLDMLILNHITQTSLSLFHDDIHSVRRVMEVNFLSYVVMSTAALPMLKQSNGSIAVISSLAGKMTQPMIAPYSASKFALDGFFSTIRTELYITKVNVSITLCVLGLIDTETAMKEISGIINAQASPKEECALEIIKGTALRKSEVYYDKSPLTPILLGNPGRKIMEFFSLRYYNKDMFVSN
procedure_text: Inhibition of mouse microsomal 11beta-HSD1 overexpressed in HEK293 cells using [3H]-cortisone as substrate assessed as formation of [3H]-cortisol by scintillation proximity assay in presence of NADPH
pIC50: −log10 of the molar value.
measured_attribute: pIC50

CC(C)(O)[C@@H](O)[C@H]1C[C@@H]([C@@H]2CC[C@]3(C)C4=CC[C@H]5C(C)(C)[C@@H](O)CC[C@]5(C)[C@H]4CC[C@@]23C)C(=O)O1 6.09
CC(C)=CC(=O)[C@@H](O)[C@H](C)[C@@H]1CC[C@]2(C)C3=CC[C@H]4C(C)(C)[C@@H](O)CC[C@]4(C)[C@H]3C[C@@H](O)[C@@]12C 5.94

Where do the numbers come from? From ChEMBL document CHEMBL2407026.
